molecular target: hERG (Homo sapiens); assay: hERG-CHO automated patch clamp electrophysiology
pIC50: −log10 of the molar value.
property: pIC50

>  <molecule>
O=C(Cc1ccc(Cl)c(Cl)c1)N1CCN(c2ccc3nncn3n2)CC1 [Compound 12a]

>  <pIC50>
~5.10

$$$$

Entry O=C(Nc1ccc(Cl)cc1)N1CCN(c2ccc3nncn3n2)CC1 [Compound 1, reference compound] ; pIC50 = ~5.00

----------
test: Mouse PK study, plasma and jejunum; assay type: in vivo, CD-1 mice; details: male, CD-1, mouse, plasma, iv, 1 mg/kg
property: clearance at 6 h (mL/min/kg)
Answers are plain numbers, in mL/min/kg.

Entry O=C(Cc1ccc(Cl)c(Cl)c1)N1CCN(c2ccc3nncn3n2)CC1 [Compound 12a] ; clearance at 6 h = 0.317

----------
biological target: hERG (Homo sapiens, UniProt Q12809); test: hERG [3H]-dofetilide competitive binding assay; conditions: human, probe [3H]-dofetilide
Sequence (Q12809 whole entry): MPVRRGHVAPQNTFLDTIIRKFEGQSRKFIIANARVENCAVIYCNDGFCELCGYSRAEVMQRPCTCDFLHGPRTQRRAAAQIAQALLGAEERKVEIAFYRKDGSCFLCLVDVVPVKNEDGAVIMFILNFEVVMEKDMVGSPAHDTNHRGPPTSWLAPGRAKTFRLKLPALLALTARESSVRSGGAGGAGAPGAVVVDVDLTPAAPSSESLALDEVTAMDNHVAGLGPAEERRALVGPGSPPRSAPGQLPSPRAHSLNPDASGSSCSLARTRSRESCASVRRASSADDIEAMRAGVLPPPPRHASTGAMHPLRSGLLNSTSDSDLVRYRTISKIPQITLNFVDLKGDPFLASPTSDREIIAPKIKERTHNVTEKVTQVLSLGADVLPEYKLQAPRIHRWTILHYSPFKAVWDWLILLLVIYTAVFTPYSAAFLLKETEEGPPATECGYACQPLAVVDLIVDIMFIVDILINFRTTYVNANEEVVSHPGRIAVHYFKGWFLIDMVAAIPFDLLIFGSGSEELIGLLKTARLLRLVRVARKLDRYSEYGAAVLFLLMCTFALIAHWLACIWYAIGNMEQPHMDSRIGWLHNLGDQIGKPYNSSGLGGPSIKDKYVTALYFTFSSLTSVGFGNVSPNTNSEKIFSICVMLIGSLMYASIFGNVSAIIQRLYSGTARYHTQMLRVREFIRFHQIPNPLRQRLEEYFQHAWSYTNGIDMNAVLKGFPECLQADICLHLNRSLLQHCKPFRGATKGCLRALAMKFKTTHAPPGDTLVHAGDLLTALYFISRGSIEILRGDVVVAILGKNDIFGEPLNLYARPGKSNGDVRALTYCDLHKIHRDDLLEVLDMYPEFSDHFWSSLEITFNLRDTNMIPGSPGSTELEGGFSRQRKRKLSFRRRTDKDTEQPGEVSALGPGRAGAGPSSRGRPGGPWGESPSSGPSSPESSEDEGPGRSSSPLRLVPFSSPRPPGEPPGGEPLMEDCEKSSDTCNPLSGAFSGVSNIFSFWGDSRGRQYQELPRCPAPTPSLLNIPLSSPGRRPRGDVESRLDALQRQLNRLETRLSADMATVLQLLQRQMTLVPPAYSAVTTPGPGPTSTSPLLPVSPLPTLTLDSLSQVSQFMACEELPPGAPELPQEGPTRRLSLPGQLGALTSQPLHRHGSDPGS
property: inhibition at 10 µM

Entry O=C(Nc1ccc(Cl)c(Cl)c1)N1CCN(c2ccc3nncn3n2)CC1 [Compound 2] ; inhibition at 10 µM = ~50%
